Target: T1, TNFR1 (Homo sapiens, UniProt P19438)
T1 chain: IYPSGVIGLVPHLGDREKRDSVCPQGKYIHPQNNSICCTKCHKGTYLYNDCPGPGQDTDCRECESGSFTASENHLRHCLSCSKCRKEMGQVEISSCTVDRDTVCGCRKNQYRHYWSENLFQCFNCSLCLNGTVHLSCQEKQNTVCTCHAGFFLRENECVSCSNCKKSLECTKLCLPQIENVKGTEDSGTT
Experiment: yeast display SC50
Property label: apparent Kd (screen) (nM)

Sample answers from the record:
* L7G (designed binder) MTLQELGREEALRRAEAEAFRYALELLAEKFPEQKEYLLDLAEEIESQIRSLSGVDVEDVRKFLDKEWAWVKELLAEHPAELAEVEAARAARLAELRAEVEAKVAA | 16.7
* T2S (designed binder) MSLQELLREEALRRAEAEAFRYALELLAEKFPEQKEYLLDLAEEIESQIRSLSGVDVEDVRKFLDKEWAWVKELLAEHPAELAEVEAARAARLAELRAEVEAKVAA | 0.653

I: L96V (designed binder) MTLQELLREEALRRAEAEAFRYALELLAEKFPEQKEYLLDLAEEIESQIRSLSGVDVEDVRKFLDKEWAWVKELLAEHPAELAEVEAARAARLAEVRAEVEAKVAA
II: F31Q (designed binder) MTLQELLREEALRRAEAEAFRYALELLAEKQPEQKEYLLDLAEEIESQIRSLSGVDVEDVRKFLDKEWAWVKELLAEHPAELAEVEAARAARLAELRAEVEAKVAA
## Task In terms of reported apparent Kd (screen), does I or II have the smaller number? Indicate your choice by writing its label.
## Result I
(I: 0.446 nM, II: 0.653 nM)

The measurements presented in this section are drawn from paper PMC12416549.
